# TESTED SYSTEM: Aβ42 (Homo sapiens, UniProt P05067)
# Sequence (P05067 672-713): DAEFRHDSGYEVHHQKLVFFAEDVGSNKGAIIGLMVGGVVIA
# ASSAY PROTOCOL: Th-T (thioflavin-T) assay of Aβ42 aggregation
# Type: biochemical
# APPLIED CONDITIONS: time-course reading M113; Supplementary Fig. 47 source data
Would you kindly list Th-T fluorescence, mean of three wells for each of these compounds?
Answer as a number with no unit attached.

## Task If you can, please state the reported Th-T fluorescence, mean of three wells value of C=C1CC[C@H]2[C@]3(C)C[C@@H](C=C(C)C)O[C@H]3CC[C@]2(C)[C@@H]1Cc1c(OC)oc(CO)c(C)c1=O .
## Result 3.697

## Task If you can, please state the reported Th-T fluorescence, mean of three wells value of C=C1CCC2C3(C)CC(C=C(C)C)OC3CCC2(C)C1Cc1c(OC)oc(C)c(C)c1=O (stereo not shown) .
## Result 3.855

## Task If you can, please state the reported Th-T fluorescence, mean of three wells value of C=C1CC[C@@H]2[C@](C)(CC[C@H]3O[C@H](C=C(C)C)C[C@@]23C)[C@@H]1Cc1c(OC)oc(CO)c(C)c1=O .
## Result 4.225

## Task If you can, please state the reported Th-T fluorescence, mean of three wells value of C=C1CCC2C(C)(CC(=O)C=C(C)C)C(O)CCC2(C)C1Cc1c(OC)oc(C)c(C)c1=O (stereo not shown) .
## Result 3.58

## Task If you can, please state the reported Th-T fluorescence, mean of three wells value of C=C1CCC2C(C)(CCC=C(C)C)C(O)CCC2(C)C1Cc1c(O)c(C)c(C)oc1=O (stereo not shown) [Compound 9, higginsianin B] .
## Result 2.81

## Task If you can, please state the reported Th-T fluorescence, mean of three wells value of CC(C)=CCC/C(C)=C/CC/C(C)=C/CC/C(C)=C/Cc1c(O)c(C)c(C)oc1=O .
## Result 2.9565

## Task If you can, please state the reported Th-T fluorescence, mean of three wells value of C=C1CCC2C(C)(CCC=C(C)C)C(O)CCC2(C)C1Cc1c(OC)oc(CO)c(C(=O)OC)c1=O (stereo not shown) .
## Result 1.042

Origin of the recorded values: paper PMC7156458
